Tested on: human neutrophils
Assay: Human neutrophil oxidative activity, luminol-enhanced chemiluminescence
Assay type: cell-based
Settings: human neutrophil experiment w/o Rolipram
PMN oxid (-log EC50): recorded values
// no unit, no text: just the number

Please review the following examples before continuing.
{"COMPOUND": "CCNC(=O)[C@H]1O[C@@H](n2cnc3c(N)nc(C#CC4(O)CCCCC4C)nc32)C(O)C1O (single isomer, unassigned) [JR-3177B]", "PMN oxid (-log EC50)": 8.5}
{"COMPOUND": "CCNC(=O)[C@H]1O[C@@H](n2cnc3c(N)nc(C#CC4(O)CCCCC4C)nc32)C(O)C1O (single isomer, unassigned) [JR-3181B]", "PMN oxid (-log EC50)": 8.57}

Now turn to the next compound.
Asked: Tell me measured PMN oxid (-log EC50) for CCNC(=O)[C@H]1O[C@@H](n2cnc3c(N)nc(C#CC4(O)CCCCNC4=O)nc32)C(O)C1O (single isomer, unassigned) [JR-3243B] please.
Given back: 7.81
